- target-entity: Platelet-activating factor receptor (Cavia porcellus)
- assay-explanation: Ability to prevent PAF-induced bronchoconstriction in guinea pig 2 hr after administration (50 mg/kg perorally)
- Format: functional, organism-based
Provide the recorded inhibition for the entries that follow.
Numbers only, in %.

Solved entries (count: 3):
COc1ccc(C(=C/C=C/C(=O)Nc2ccc(-c3cccnc3)cc2)c2ccc(OC)cc2)cc1	82
O=C(/C=C/C=C(c1ccc(F)cc1)c1ccc(F)cc1)NCCCCc1cccnc1	89
O=C(/C=C/C=C(c1ccc(Cl)cc1)c1ccc(Cl)cc1)NCCCCc1cccnc1	54

For each of the compounds below, note its inhibition.
1. COc1cccc(C(=C/C=C/C(=O)N[C@H](C)CCCc2cccnc2)c2cccc(OC)c2)c1
2. O=C(/C=C/C=C(c1cccc(F)c1)c1cccc(F)c1)NCCCCc1cccnc1

86
37

For each of the compounds below, note its inhibition.
1. O=C(C/C=C/C=C(c1ccccc1)c1ccccc1)NCCCCc1cccnc1
2. CCCC/C(=C\C=C\C(=O)N[C@H](C)CCCc1cccnc1)c1ccc(OC)cc1
3. C[C@@H](CCCc1cccnc1)NC(=O)/C=C/C=C(c1cccc(F)c1)c1cccc(F)c1
4. COc1ccc(C(=C/C=C/C(=O)N[C@H](C)CCCc2cccnc2)c2ccc(OC)c(OC)c2)cc1OC

35
98
46
67
